Molecular target: Solute carrier organic anion transporter family member 1A3 (Rattus norvegicus)
Sequence (P70502 whole entry): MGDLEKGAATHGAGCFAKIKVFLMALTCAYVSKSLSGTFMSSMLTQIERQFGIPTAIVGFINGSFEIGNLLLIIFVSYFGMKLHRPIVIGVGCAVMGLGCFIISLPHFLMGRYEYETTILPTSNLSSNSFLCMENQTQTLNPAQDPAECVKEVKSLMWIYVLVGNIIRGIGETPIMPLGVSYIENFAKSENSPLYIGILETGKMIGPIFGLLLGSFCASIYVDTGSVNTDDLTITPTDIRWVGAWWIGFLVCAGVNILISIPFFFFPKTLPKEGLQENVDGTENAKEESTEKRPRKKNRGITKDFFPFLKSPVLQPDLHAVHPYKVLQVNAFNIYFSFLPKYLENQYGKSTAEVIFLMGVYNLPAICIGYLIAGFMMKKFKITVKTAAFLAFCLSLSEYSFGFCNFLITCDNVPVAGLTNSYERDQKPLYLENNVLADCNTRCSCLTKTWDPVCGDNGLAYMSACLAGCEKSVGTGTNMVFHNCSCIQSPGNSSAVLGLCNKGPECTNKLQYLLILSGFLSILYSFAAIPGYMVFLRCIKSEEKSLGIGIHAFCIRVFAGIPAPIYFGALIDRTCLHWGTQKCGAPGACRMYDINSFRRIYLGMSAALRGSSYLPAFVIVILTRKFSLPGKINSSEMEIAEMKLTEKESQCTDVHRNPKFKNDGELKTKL
Assay: TP_TRANSPORTER: inhibition of MTX uptake in OAT-K1-expressing MDCK cells
Label Condition met when Ki < 8 µM; otherwise Condition not met.

Sample answers from the record:
Lab note: confirm whether the reported Ki for this compound is below 8 µM, equality not counting. compound: Nc1nc2ncc(CNc3ccc(C(=O)N[C@@H](CCC(=O)O)C(=O)O)cc3)nc2c(=O)[nH]1 [FOLIC ACID]
Condition not met

Lab note: confirm whether the reported Ki for this compound is below 8 µM, equality not counting. compound: CN1c2c(nc(N)[nH]c2=O)NC[C@@H]1CNc1ccc(C(=O)N[C@@H](CCC(=O)O)C(=O)O)cc1 [LEVOMEFOLIC ACID]
Condition met

Continuing:
Lab note: confirm whether the reported Ki for this compound is below 8 µM, equality not counting. compound: O=C1OC(c2ccc(O)c(S(=O)(=O)O)c2)(c2ccc(O)c(S(=O)(=O)O)c2)c2c(Br)c(Br)c(Br)c(Br)c21 [SULFOBROMOPHTHALEIN SODIUM]
Condition not met

Lab note: confirm whether the reported Ki for this compound is below 8 µM, equality not counting. compound: Nc1nc(N)c2nc(CNc3ccc(C(=O)N[C@@H](CCC(=O)O)C(=O)O)cc3)cnc2n1 [AMINOPTERIN]
Condition met

The values you see were collected from ChEMBL document CHEMBL2074088.
